The origin of these recorded values is the supplement of paper PMC10567573.

Reported protein stability index is given for each of the following variants.
B1: TMEM40 (parent)
chain: YGETDFHKQDGKAGLFSQEQYERN

Variants of: B1
TEST_DESCRIPTION: protein stability index of a GFP-peptide fusion (GPS, HEK-293T) (PSI 1-6); higher = more stable;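 also: lentivirally expressed fusions sorted by FACS into six bins by GFP to DsRed ratio, PSI derived from sequencing read proportions per bin multiplied by bin number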
CONDITION_SUMMARY: c terminus: a fixed tail appended
Give the figure by itself; no unit, no explanation.

mutation_descriptor=Q9M recorded_value=3.17
mutation_descriptor=L15E recorded_value=4.66
mutation_descriptor=L15F recorded_value=3.32
mutation_descriptor=G14V recorded_value=4.09
mutation_descriptor=E22R recorded_value=3.71
mutation_descriptor=Y1R recorded_value=5.01
mutation_descriptor=E3A recorded_value=3.92
mutation_descriptor=E22G recorded_value=3.83
mutation_descriptor=K12N recorded_value=4.78
mutation_descriptor=E22W recorded_value=2.74

Per the record, Y1T has protein stability index of 5.14

Per the record, F6W has protein stability index of 2.35

Per the record, Q20S has protein stability index of 4.3

Per the record, Q20V has protein stability index of 3.66

Per the record, G14H has protein stability index of 4.06

Per the record, F6K has protein stability index of 4.91

Per the record, R23A has protein stability index of 4.69

Per the record, D10Q has protein stability index of 2.9

Per the record, Q20G has protein stability index of 3.48

Per the record, G2P has protein stability index of 4.95

Per the record, G14L has protein stability index of 3.86

Per the record, Y1H has protein stability index of 4.38

Per the record, G2C has protein stability index of 3.42

Per the record, D5Q has protein stability index of 3.81

Per the record, G14N has protein stability index of 4.47

Per the record, F6P has protein stability index of 4.94

Per the record, Y21P has protein stability index of 4.32
